Cited source for all entries: ChEMBL document CHEMBL4308835

Target: Proton-coupled folate transporter (Homo sapiens) (UniProt Q96NT5)
Sequence (Q96NT5 whole entry): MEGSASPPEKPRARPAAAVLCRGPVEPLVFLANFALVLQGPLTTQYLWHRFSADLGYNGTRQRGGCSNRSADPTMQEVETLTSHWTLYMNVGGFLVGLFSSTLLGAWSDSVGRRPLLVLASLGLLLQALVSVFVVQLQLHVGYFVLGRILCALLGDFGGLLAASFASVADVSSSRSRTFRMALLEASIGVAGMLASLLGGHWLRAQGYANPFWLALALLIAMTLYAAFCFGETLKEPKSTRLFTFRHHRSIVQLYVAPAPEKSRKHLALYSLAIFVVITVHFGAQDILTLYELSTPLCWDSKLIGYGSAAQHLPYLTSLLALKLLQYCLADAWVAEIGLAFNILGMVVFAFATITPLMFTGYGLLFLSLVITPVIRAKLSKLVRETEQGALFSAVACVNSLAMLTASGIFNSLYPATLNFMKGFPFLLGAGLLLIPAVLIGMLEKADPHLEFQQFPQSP
Assay: Inhibition of human PCFT expressed in Chinese hamster R2/PCFT4 cells assessed as reduction in [3H]MTX uptake at pH 5.5 at 10 uM measured over 2 mins relative to control
Type: cell-based
Active and inactive are the calls of the source. No cut-off for these calls is given here.
quantity.measured: inhibition

Consider the following illustrative entries.
>>> result("Nc1nc2[nH]c(CCCCc3cnc(C(=O)N[C@@H](CCC(=O)O)C(=O)O)c(F)c3)cc2c(=O)[nH]1")
"90 to 95%"
>>> result("Nc1nc2[nH]c(CCCc3ccc(C(=O)N[C@@H](CCC(=O)O)C(=O)O)c(F)c3)cc2c(=O)[nH]1")
"90 to 95%"
>>> result("Nc1nc2[nH]c(CCCc3ccc(C(=O)N[C@@H](CCC(=O)O)C(=O)O)cc3)cc2c(=O)[nH]1")
"Active"
>>> result("Nc1nc2[nH]c(CCCc3csc(C(=O)N[C@@H](CCC(=O)O)C(=O)O)c3F)cc2c(=O)[nH]1")
"90 to 95%"
>>> result("Nc1nc2[nH]c(CCCCc3ccc(C(=O)N[C@@H](CCC(=O)O)C(=O)O)nc3)cc2c(=O)[nH]1")
"Active"

Okay, next one:
Incoming: Please give measured inhibition of the following entry: Nc1nc(N)c2nc(CNc3ccc(C(=O)N[C@@H](CCCNC(=O)c4ccccc4C(=O)O)C(=O)O)cc3)cnc2n1
Outgoing: Active

---

Biological target: Proton-coupled folate transporter (Homo sapiens, UniProt Q96NT5)
Assay: Inhibition of human PCFT expressed in Chinese hamster R2/PCFT4 cells assessed as reduction in [3H]MTX uptake at pH 5.5 measured over 2 mins by Dixon plot analysis
Each entry below carries its reported Ki.
Output spec: scalar in nM, unitless text.

>>> number("Nc1nc2[nH]c(CCCCc3csc(C(=O)N[C@@H](CCC(=O)O)C(=O)O)c3F)cc2c(=O)[nH]1")
250
>>> number("Nc1nc2[nH]c(CCCc3csc(C(=O)N[C@@H](CCC(=O)O)C(=O)O)c3)cc2c(=O)[nH]1")
280

Incoming: Send back Proton-coupled folate transporter (Homo sapiens, UniProt Q96NT5) Ki of Nc1nc2[nH]c(CCCc3ccc(C(=O)N[C@@H](CCC(=O)O)C(=O)O)cc3)cc2c(=O)[nH]1 only.
Outgoing: 630

Incoming: Quote Proton-coupled folate transporter (Homo sapiens, UniProt Q96NT5) Ki for entry Nc1nc2[nH]c(CCCCc3ccc(C(=O)N[C@@H](CCC(=O)O)C(=O)O)nc3)cc2c(=O)[nH]1 .
Outgoing: 240

---

Biological target: Reduced folate transporter (Homo sapiens) (UniProt P41440)
Sequence (whole entry): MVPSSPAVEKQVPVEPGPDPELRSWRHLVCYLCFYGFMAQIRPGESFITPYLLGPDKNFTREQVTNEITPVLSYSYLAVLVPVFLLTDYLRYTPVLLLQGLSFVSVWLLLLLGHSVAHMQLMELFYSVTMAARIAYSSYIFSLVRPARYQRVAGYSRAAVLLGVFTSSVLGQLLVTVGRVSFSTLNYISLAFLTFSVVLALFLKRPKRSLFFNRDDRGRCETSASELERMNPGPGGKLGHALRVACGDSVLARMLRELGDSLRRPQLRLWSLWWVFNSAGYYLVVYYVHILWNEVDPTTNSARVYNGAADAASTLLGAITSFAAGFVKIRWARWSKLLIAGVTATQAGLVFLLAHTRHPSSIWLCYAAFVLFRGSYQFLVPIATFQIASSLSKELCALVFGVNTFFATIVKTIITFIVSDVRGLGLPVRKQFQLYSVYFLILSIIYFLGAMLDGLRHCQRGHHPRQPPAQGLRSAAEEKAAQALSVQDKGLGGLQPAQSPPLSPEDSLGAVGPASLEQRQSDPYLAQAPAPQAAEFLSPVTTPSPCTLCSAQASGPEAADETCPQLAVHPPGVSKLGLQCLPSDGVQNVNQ
Assay: Inhibition of human RFC2 expressed in human HeLa R1-11 cells assessed as reduction in [3H]MTX uptake at pH 7.2 at 1 uM measured over 2 mins relative to control
Assay type: cell-based
Active and inactive are the calls of the source. The calls are words filed in the database; no cut-off is given here.
quantity.measured: inhibition

>>> result("Nc1nc(N)c2nc(CNc3ccc(C(=O)N[C@@H](CCCNC(=O)c4ccccc4C(=O)O)C(=O)O)cc3)cnc2n1")
"inactive"
>>> result("Nc1nc2[nH]c(CCCCc3ccc(C(=O)N[C@@H](CCC(=O)O)C(=O)O)nc3)cc2c(=O)[nH]1")
"inactive"
>>> result("Nc1nc2[nH]c(CCCCc3cnc(C(=O)N[C@@H](CCC(=O)O)C(=O)O)c(F)c3)cc2c(=O)[nH]1")
"inactive"

---

Assay: Binding affinity to human RFC expressed in Chinese hamster PC43-10 cells assessed as antiproliferative activity measured as reduction in cell growth after 96 hrs by Cell-Titer Blue assay
quantity.measured: pIC50
Would you please state pIC50, meaning minus log10 of the concentration in mol/L, as a bare number?

Incoming: Could you please provide reported pIC50 for Nc1nc2[nH]c(CCCc3csc(C(=O)N[C@@H](CCC(=O)O)C(=O)O)c3)cc2c(=O)[nH]1 ? Thanks!
Outgoing: 6.71

---

Biological target: Reduced folate transporter (Homo sapiens)
Sequence (whole entry): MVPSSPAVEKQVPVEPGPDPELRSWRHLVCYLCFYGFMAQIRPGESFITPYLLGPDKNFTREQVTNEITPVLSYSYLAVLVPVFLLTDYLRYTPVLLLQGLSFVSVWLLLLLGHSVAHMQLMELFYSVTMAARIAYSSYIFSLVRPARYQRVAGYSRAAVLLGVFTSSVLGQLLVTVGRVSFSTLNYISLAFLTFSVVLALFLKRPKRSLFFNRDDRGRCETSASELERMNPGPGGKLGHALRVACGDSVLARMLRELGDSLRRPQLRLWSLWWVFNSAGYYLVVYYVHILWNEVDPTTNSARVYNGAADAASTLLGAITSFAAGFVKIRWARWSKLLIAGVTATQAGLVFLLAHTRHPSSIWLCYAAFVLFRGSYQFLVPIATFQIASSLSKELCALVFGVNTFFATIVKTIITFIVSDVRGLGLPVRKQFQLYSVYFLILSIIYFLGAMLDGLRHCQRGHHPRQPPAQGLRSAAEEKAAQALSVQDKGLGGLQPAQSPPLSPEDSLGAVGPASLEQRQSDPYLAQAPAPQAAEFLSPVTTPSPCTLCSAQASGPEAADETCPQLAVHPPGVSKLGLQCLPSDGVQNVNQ
Assay: Inhibition of human RFC2 expressed in human HeLa R1-11 cells assessed as reduction in [3H]MTX uptake at pH 7.2 at 10 uM measured over 2 mins relative to control
Type: cell-based
Active and inactive are the calls of the source. The rule behind the calls is not given here.
quantity.measured: inhibition

Example cases with answers are listed next.
>>> result("Nc1nc2[nH]c(CCCc3csc(C(=O)N[C@@H](CCC(=O)O)C(=O)O)c3F)cc2c(=O)[nH]1")
"< 30%"
>>> result("Nc1nc2[nH]c(CCCCc3cnc(C(=O)N[C@@H](CCC(=O)O)C(=O)O)c(F)c3)cc2c(=O)[nH]1")
"inactive"
>>> result("Nc1nc2[nH]c(CCCc3ccc(C(=O)N[C@@H](CCC(=O)O)C(=O)O)s3)cc2c(=O)[nH]1")
"inactive"
>>> result("Nc1nc2[nH]c(CCCCc3ccc(C(=O)N[C@@H](CCC(=O)O)C(=O)O)nc3)cc2c(=O)[nH]1")
"inactive"

// next item, inhibition requested
Incoming: Please indicate recorded inhibition of Nc1nc2[nH]c(CCCCc3csc(C(=O)N[C@@H](CCC(=O)O)C(=O)O)c3)cc2c(=O)[nH]1 measured with Reduced folate transporter (Homo sapiens).
Outgoing: inactive

---

Tested on: IGROV-1
Assay: Antiproliferative activity against FRalpha […] human IGROV1 KD10 cells after 96 hrs by Cell-Titer Blue assay
Format: functional, cell-based
Details: IGROV-1, 96 h
Threshold check on IC50: strictly below 30 nM is satisfied; on or above 30 nM is not satisfied.

>>> class_assignment("Nc1nc2[nH]cc(CCc3ccc(C(=O)N[C@@H](CCC(=O)O)C(=O)O)cc3)c2c(=O)[nH]1")
"satisfied"

Incoming: Regarding Nc1nc2[nH]c(CCCc3csc(C(=O)N[C@@H](CCC(=O)O)C(=O)O)c3F)cc2c(=O)[nH]1 , kindly confirm whether its IC50 is beneath 30 nM.
Outgoing: not satisfied

Incoming: In plain terms, does Nc1nc2[nH]c(CCCCc3ccc(C(=O)N[C@@H](CCC(=O)O)C(=O)O)cc3)cc2c(=O)[nH]1 come in under 30 nM for IC50?
Outgoing: not satisfied

Incoming: Given the entry Nc1nc2[nH]c(CCCCc3cnc(C(=O)N[C@@H](CCC(=O)O)C(=O)O)c(F)c3)cc2c(=O)[nH]1 , would its reported IC50 be below 30 nM?
Outgoing: not satisfied

Incoming: Is IC50 strictly under 30 nM for the entry Nc1nc2[nH]c(CCCCc3csc(C(=O)N[C@@H](CCC(=O)O)C(=O)O)c3F)cc2c(=O)[nH]1 ?
Outgoing: not satisfied
